- System: CHD5 (PPCC)
- method notes: Histone peptide microarray
- Type: binding, human
- setup conditions: CHD5 (PPCC), GST-tagged; arrays performed twice, n of 4
Where no end group is shown, it is not given here. [ ]: non-standard residue; d: D form. Arg(Me2a) = CN(C)C(=N)NCCC[C@H](N)C(=O)O; pS = N[C@@H](COP(=O)(O)O)C(=O)O
test readout: Array Heatmap value (peptide array binding signal)

INSERT INTO assay_data (substance, experimental_system, reported_result) VALUES
  ('H2AX (132-142): H2AX 132-142 (GKKATQASQEY; UniProt P16104 133-143, looked up, fragment)', 'CHD5 (PPCC)', 0.5152),
  ('H2AR3me2a + K5ac: H2A 1-17 (SG[Arg(Me2a)]GK(Ac)QGGKARAKAKTR; UniProt P0C0S8 2-18, looked up, fragment)', 'CHD5 (PPCC)', 0.5209),
  ('H2A.Z K4ac + K8ac + K12ac (1-19) (N-ac): H2AZ 1-19 (Ac-AGGKAGKDSGKAKTKAVSR; not fully specified (residue 4); UniProt P0C0S5 2-20, looked up, fragment)', 'CHD5 (PPCC)', 0.6452),
  ('Myc-Tag: 1-10 (ILKKATAYIL; Myc epitope tag; UniProt P01106 410-419, looked up, fragment)', 'CHD5 (PPCC)', 0.538),
  ('H2A.Z (1-19): H2AZ 1-19 (AGGKAGKDSGKAKTKAVSR; UniProt P0C0S5 2-20, looked up, fragment)', 'CHD5 (PPCC)', 0.6481),
  ('H2A.Z (1-19) (N-ac): H2AZ 1-19 (Ac-AGGKAGKDSGKAKTKAVSR; UniProt P0C0S5 2-20, looked up, fragment)', 'CHD5 (PPCC)', 0.4838),
  ('H4K12ac + KQ5,8,16,20: H4 1-23 (SGRGQGGQGLGK(Ac)GGAQRHRQVLR; UniProt P62805 2-24, looked up, variant K5Q K8Q K16Q K20Q)', 'CHD5 (PPCC)', 0.5319),
  ('H2AX (S139p): H2AX 132-142 (GKKATQA[pS]QEY; UniProt P16104 133-143, looked up, fragment)', 'CHD5 (PPCC)', 0.5731),
  ('H2AS1p + K5ac: H2A 1-17 ([pS]GRGK(Ac)QGGKARAKAKTR; UniProt P0C0S8 2-18, looked up, fragment)', 'CHD5 (PPCC)', 0.3972),
  ('H2AS1p + R3me2a + K5ac: H2A 1-17 ([pS]G[Arg(Me2a)]GK(Ac)QGGKARAKAKTR; UniProt P0C0S8 2-18, looked up, fragment)', 'CHD5 (PPCC)', 0.6207);

* * *

- System: PHF8
- method notes: Histone peptide microarray
- Assay type: binding, human
- setup conditions: PHF8, GST-tagged; arrays performed twice, n of 4
Where no end group is shown, it is not given here. [ ]: non-standard residue; d: D form. Arg(Me2a) = CN(C)C(=N)NCCC[C@H](N)C(=O)O; pS = N[C@@H](COP(=O)(O)O)C(=O)O
test readout: Array Heatmap value (peptide array binding signal)

INSERT INTO measurements (substance, reported_result) VALUES
  ('H2AS1p + K5ac: H2A 1-17 ([pS]GRGK(Ac)QGGKARAKAKTR; UniProt P0C0S8 2-18, looked up, fragment)', 0.2793),
  ('H2AX (S139p): H2AX 132-142 (GKKATQA[pS]QEY; UniProt P16104 133-143, looked up, fragment)', 0.3729),
  ('H2A.Z (1-19) (N-ac): H2AZ 1-19 (Ac-AGGKAGKDSGKAKTKAVSR; UniProt P0C0S5 2-20, looked up, fragment)', 0.3344),
  ('H4K12ac + KQ5,8,16,20: H4 1-23 (SGRGQGGQGLGK(Ac)GGAQRHRQVLR; UniProt P62805 2-24, looked up, variant K5Q K8Q K16Q K20Q)', 0.3437),
  ('H2A.Z (1-19): H2AZ 1-19 (AGGKAGKDSGKAKTKAVSR; UniProt P0C0S5 2-20, looked up, fragment)', 0.402),
  ('H2AR3me2a + K5ac: H2A 1-17 (SG[Arg(Me2a)]GK(Ac)QGGKARAKAKTR; UniProt P0C0S8 2-18, looked up, fragment)', 0.3477),
  ('H2AS1p + R3me2a + K5ac: H2A 1-17 ([pS]G[Arg(Me2a)]GK(Ac)QGGKARAKAKTR; UniProt P0C0S8 2-18, looked up, fragment)', 0.3894);
